All values here come from PubChem BioAssay (NCI).

system: XF 498 CNS; test: NCI tumour cell line growth inhibition, 48 h
READOUT LABEL: TGI

[F][Sn]([F])([c]1ccccc1)[c]1ccccc1: 3.45 µM
OCC(O)CNc1ccnc2cc(Cl)ccc12 (stereo not drawn): > 100 µM

Inquiry: GET /values?readout=TGI&item= Cc1cccc(N=C2NC(=O)C(CC(=O)Nc3cccc(C)c3C)S2)c1 (stereo not drawn)
Reply text: > 100 µM

---

# TGI listing for each entry below
test system: RXF 393 renal; assay: NCI tumour cell line growth inhibition, 48 h

Some solved entries appear below for comparison.
N#CCCN(CCC#N)c1ccc(/C=C2\SC(=S)NC2=O)cc1Br: > 100 µM
N#Cc1c(C#N)c(-c2ccccc2)n(-c2ccccc2)c1N: > 100 µM
Cn1cc(-c2ccc(-c3cncc(Cl)c3N3CCC4(CCNC4=O)CC3)cc2)cn1: > 100 µM
CC1=CC(=O)C(C(O)(C(F)(F)F)C(F)(F)F)C(C)(C)C1 (stereo not given): > 10 µM

Inquiry: GET /values?readout=TGI&item= COc1c(O)c(O)cc2c1-c1ccc(OC)c(=O)cc1C(NC(C)=O)CC2 (stereo not given)
Reply text: > 41.2 µM
